Values from PubChem BioAssay (EPA / NIEHS)

Test: IUF_NPC2-5_viability_120hr: Viability Assessment at 120 hours in the Leibniz Research Institute for Environmental Medicine (IUF) Neural Progenitor Cell Migration and Differentiation Assay (NPC2-5) (AID 2284312)
Active and inactive are the calls of the source. The calls were made as follows: active = hit-call score of the fitted dose curve at least 0.9, where 1 is the maximum; inactive = score below 0.9.
test.readout: outcome

>>> print(df.to_string())
                                   molecule  test_readout   reading
0  CC(C)CC(C)c1sccc1NC(=O)c1cn(C)nc1C(F)(F)F (centres undefined)       outcome  inactive
1        CC(=O)[O-].CC(=O)[O-].O.O.O.[Pb+2]       outcome  inactive
2  Cn1nc(C(F)(F)F)c(CS(=O)(=O)C2=NOC(C)(C)C2)c1OC(F)F       outcome  inactive
3  Cc1ccc(OP(=O)(Oc2ccc(C)cc2)Oc2ccc(C)cc2)cc1 (tested in a mixture with another compound)       outcome  inactive

====

Experiment: BSK_4H_SRB: Viability Assessment in the BioMAP Diversity Plus: 4H Assay (AID 2283027);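 also: cells exposed to compound for 24 h before staining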;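 as to AC50: curves fitted both ways versus DMSO so AC50 may be loss or gain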
Details: primary human endothelial cells (HUVEC)
Method: BSK_4H is a cell-based, multiplexed-readout assay that uses umbilical vein endothelium, a human vascular primary cell, with measurements taken at 24 hours after chemical dosing in a 96-well plate.BSK_4H_SRB is an assay component measured in the BSK_4H assay. It measures […] related to cell death using Sulforhodamine staining technology.Data from the assay component BSK_4H_SRB was analyzed into 1 assay endpoint. […]
The source made the active and inactive calls. Rule for the calls: active = hit-call score of the fitted dose curve at least 0.9, where 1 is the maximum; inactive = score below 0.9.
test.readout: AC50

>>> df
                 input_smiles           reading
0    O=[N+]([O-])c1ccc(Cl)cc1          inactive
1  CNC(=O)Oc1cc(C)c(SC)c(C)c1          inactive
2            O=C(CCl)c1ccccc1  14.3 µM (active)

====

Experiment: CCTE_Shafer_MEA_dev_per_network_spike_spike_number_mean: CCTE's Neural Network Formation Assay for Mean Number of Spikes in a Network Spike, Shafer Lab (AID 2284053)
Calls of active or inactive are those of the source. Rule for the calls: active = hit-call score of the fitted dose curve at least 0.9, where 1 is the maximum; inactive = score below 0.9.
Your reply should match one of these outcome classes. active, inactive

Recorded results for 3 compounds are shown here.
                                   compound  category_label
0                 CP(=O)(O)CC[C@H](N)C(=O)O        inactive
1  CCOP(=S)(OCC)SCS(=O)C(C)(C)C (configuration not stated)        inactive
2                     [CH3][Sn]([CH3])[CH3]          active

Query: recorded result category for CC(=O)[O-].CC(=O)[O-].O.O.O.[Pb+2] in this test
active

Query: recorded result category for COC(=O)[C@H]1[C@@H](OC(=O)c2ccccc2)C[C@@H]2CC[C@H]1N2C in this test
inactive

Query: recorded result category for C[n+]1ccc(-c2cc[n+](C)cc2)cc1 in this test
active

Query: recorded result category for [CH3][Hg][Cl] in this test
active

Query: recorded result category for C#CCN(C)[C@H](C)Cc1ccccc1 in this test
inactive

Query: recorded result category for COP(=O)(OC)SCN1C(=O)c2ccccc2C1=O in this test
inactive

Query: recorded result category for CC1(C)C(C=C(Cl)c2ccc(Cl)cc2)C1C(=O)OC(C#N)c1ccc(F)c(Oc2ccccc2)c1 (configuration not stated) in this test
active

Query: recorded result category for CNC(=N[N+](=O)[O-])NCC1CCOC1 (configuration not stated) in this test
inactive

Query: recorded result category for C=CCN1CC[C@]23c4c5ccc(O)c4O[C@H]2C(=O)CC[C@@]3(O)[C@H]1C5 in this test
inactive
